Tested on: HFF
Assay: Cytotoxicity against HFF cells assessed as reduction in cell viability up to 5 uM after 72 hrs by CellTiter96 AQueous one solution cell proliferation assay
Assay type: cell-based
Settings: human

{"columns": ["SMILES CODE", "Activity"],
 "data": [
  ["CC1=C(C)[C@H](O)[C@H]([C@](C)(O)[C@H]2CC[C@@]3(O)[C@@H]4C[C@H]5O[C@]56CC=CC(=O)[C@]6(C)[C@H]4CC[C@]23C)OC1=O", "Non-Toxic"],
  ["C[C@H]1C(=O)O[C@@H]([C@](C)(O)[C@H]2CC[C@@]3(O)[C@@H]4CC=C5CC=CC(=O)[C@]5(C)[C@H]4CC[C@]23C)[C@@H](O)[C@@H]1CO", "Non-Toxic"],
  ["C[C@H]1C(=O)OC[C@H]1C[C@@H](O)[C@](C)(O)C1=CC[C@H]2[C@@H]3C[C@H]4O[C@]45CC=CC(=O)[C@]5(C)[C@H]3CC[C@]12C", "Non-Toxic"]
]}
